This collection of values is drawn from patent EP0102564A2.

Target: HSA (Homo sapiens)
Construct: Humanserumalbumin (HSA); purchased Behring, Marburg or Sigma, St. Louis (fatty-acid-free)
Sequence (P02768 25-609 limits assumed): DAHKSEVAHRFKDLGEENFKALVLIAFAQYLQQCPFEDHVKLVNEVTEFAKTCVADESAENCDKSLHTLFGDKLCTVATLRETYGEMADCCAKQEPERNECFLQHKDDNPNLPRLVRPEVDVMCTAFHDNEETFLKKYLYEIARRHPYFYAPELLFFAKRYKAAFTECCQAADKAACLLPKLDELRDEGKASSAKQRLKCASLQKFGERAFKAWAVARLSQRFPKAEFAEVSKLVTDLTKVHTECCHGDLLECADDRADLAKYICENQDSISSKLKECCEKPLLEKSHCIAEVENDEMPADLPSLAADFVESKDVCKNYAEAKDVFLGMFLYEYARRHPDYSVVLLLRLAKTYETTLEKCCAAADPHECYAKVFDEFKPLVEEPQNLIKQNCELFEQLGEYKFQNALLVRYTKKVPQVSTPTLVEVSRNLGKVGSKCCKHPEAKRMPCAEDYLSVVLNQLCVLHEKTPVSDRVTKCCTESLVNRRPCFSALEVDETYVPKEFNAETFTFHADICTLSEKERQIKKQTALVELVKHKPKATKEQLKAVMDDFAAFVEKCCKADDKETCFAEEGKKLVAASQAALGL
Experiment: Binding study of toxins to protein, ultrafiltration and photometry, HSA
Type: in vitro ADME
Conditions: HSA 80 mg in 2 ml PBS, depends on initial concentration, read-out: MTX in ungebundener Form
OBSERVED PROPERTY: fraction unbound

*Q* Could you share what fraction unbound was measured for CN(Cc1cnc2nc(N)nc(N)c2n1)c1ccc(C(=O)N[C@@H](CCC(=O)O)C(=O)O)cc1 [Methotrexat] , tested on HSA (Homo sapiens)?
*A* 0.3 to 0.4

---

Biological target: BSA (Bos taurus, UniProt P02769)
Sequence (P02769 25-607): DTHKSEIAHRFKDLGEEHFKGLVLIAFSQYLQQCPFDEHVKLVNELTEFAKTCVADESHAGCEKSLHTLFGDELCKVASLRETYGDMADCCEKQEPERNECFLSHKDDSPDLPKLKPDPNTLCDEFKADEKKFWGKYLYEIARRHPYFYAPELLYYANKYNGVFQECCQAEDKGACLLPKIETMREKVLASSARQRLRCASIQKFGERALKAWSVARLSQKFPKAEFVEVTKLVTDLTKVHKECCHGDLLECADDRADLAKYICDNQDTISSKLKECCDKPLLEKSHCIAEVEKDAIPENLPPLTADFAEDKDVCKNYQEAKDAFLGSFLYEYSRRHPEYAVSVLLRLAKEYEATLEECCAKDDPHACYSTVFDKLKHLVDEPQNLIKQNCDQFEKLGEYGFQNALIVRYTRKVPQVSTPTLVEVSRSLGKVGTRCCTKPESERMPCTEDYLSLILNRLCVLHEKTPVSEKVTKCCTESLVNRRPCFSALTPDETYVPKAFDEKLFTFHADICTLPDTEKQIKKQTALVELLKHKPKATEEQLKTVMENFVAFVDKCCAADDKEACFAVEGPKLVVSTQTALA
Assay: in vitro
Details: bovine, freie Thiolkonzentration, % der Ausgangskonzentration
OBSERVED PROPERTY: fraction unbound

*Q* Reported fraction unbound, molecule CCS : ____
*A* 0.02 to 0.05

---

Biological target: BSA (Bos taurus, UniProt P02769)
Test: in vitro
Conditions: bovine, Ethanthiol an BSA gebunden
OBSERVED PROPERTY: fraction unbound

*Q* Could you share what fraction unbound was measured for CCS , tested on BSA (Bos taurus, UniProt P02769)?
*A* ~0.05

---

Assay: Removal of protein-bound ET from plasma
OBSERVED PROPERTY: fraction unbound at 20 h, 2170 µM
API doc: respond with a numeric literal and nothing else, no unit.

*Q* Reported fraction unbound at 20 h, 2170 µM, molecule CCS : ____
*A* 0.33

---

Molecular target: BSA (Bos taurus)
Test: in vitro
Details: bovine, ET-Konzentration, % des Ausgangswerts
OBSERVED PROPERTY: fraction unbound at 18 h, 2170 µM
API doc: respond with a numeric literal and nothing else, no unit.

*Q* Reported fraction unbound at 18 h, 2170 µM, molecule CCS [Ethanthiol] : ____
*A* 0.05

---

Biological target: BSA (Bos taurus, UniProt P02769)
Assay: Binding study of toxins to protein, ultrafiltration and photometry, BSA
Settings: bovine, bsa in pbs
OBSERVED PROPERTY: fraction unbound

*Q* Reported fraction unbound, compound CN(Cc1cnc2nc(N)nc(N)c2n1)c1ccc(C(=O)N[C@@H](CCC(=O)O)C(=O)O)cc1 : ____
*A* 0.1 to 0.25

---

Target: BSA (Bos taurus, UniProt P02769)
Test: in vitro
Conditions: bovine, Konzentration an ET, % der Ausgangskonzentration
OBSERVED PROPERTY: fraction unbound

*Q* Reported fraction unbound, molecule CCS : ____
*A* ~0.11
